Molecular target: Adenylate cyclase type 5 (Rattus norvegicus)
Experiment: Intrinsic activity measured as ability to stimulate dopamine sensitive Adenylate cyclase activity was measured in rat striatum.
Format: functional, tissue-based
Measured Intrinsic activity by item

{"compound-structure-string": "Oc1cc2c(cc1O)[C@H]1c3ccccc3CN[C@@H]1CC2", "Intrinsic activity": "95%"}
{"compound-structure-string": "Oc1cc2c(cc1O)[C@H]1c3cc(-c4ccccc4)ccc3CN[C@@H]1CC2", "Intrinsic activity": "60%"}
{"compound-structure-string": "Cc1cccc2c1CN[C@@H]1CCc3cc(O)c(O)cc3[C@@H]21", "Intrinsic activity": "80%"}
{"compound-structure-string": "Oc1ccc2c(c1)[C@@H]1c3cc(O)c(O)cc3CC[C@H]1NC2", "Intrinsic activity": "95%"}
{"compound-structure-string": "CCc1ccc2c(c1)[C@@H]1c3cc(O)c(O)cc3CC[C@H]1NC2", "Intrinsic activity": "103%"}
{"compound-structure-string": "Oc1ccc2c(c1)CN[C@@H]1CCc3cc(O)c(O)cc3[C@@H]21", "Intrinsic activity": "104%"}
{"compound-structure-string": "Cc1ccc2c(c1)CN[C@@H]1CCc3cc(O)c(O)cc3[C@@H]21", "Intrinsic activity": "105%"}
{"compound-structure-string": "CCCN1Cc2ccccc2[C@@H]2c3cc(O)c(O)cc3CC[C@H]21", "Intrinsic activity": "40%"}
{"compound-structure-string": "CCCN1Cc2cc(C)ccc2[C@@H]2c3cc(O)c(O)cc3CC[C@H]21", "Intrinsic activity": "20%"}
{"compound-structure-string": "Cc1ccc2c(c1)[C@@H]1c3cc(O)c(O)cc3CC[C@H]1NC2", "Intrinsic activity": "91%"}
{"compound-structure-string": "CCCN1Cc2c(C)cccc2[C@@H]2c3cc(O)c(O)cc3CC[C@H]21", "Intrinsic activity": "89%"}

----------
Biological target: UniProt:P61169
Experiment: Binding affinity for Dopamine receptor D2 of rat striatal homogenate

{"compound-structure-string": "CCCN1Cc2cc(C)ccc2[C@@H]2c3cc(O)c(O)cc3CC[C@H]21", "censor-symbol": "=", "K0.5 / nM": 29.4}
{"compound-structure-string": "Oc1ccc2c(c1)CN[C@@H]1CCc3cc(O)c(O)cc3[C@@H]21", "censor-symbol": "=", "K0.5 / nM": 53.6}
{"compound-structure-string": "Cc1ccc2c(c1)CN[C@@H]1CCc3cc(O)c(O)cc3[C@@H]21", "censor-symbol": "=", "K0.5 / nM": 18}
{"compound-structure-string": "CCCN1Cc2ccccc2[C@@H]2c3cc(O)c(O)cc3CC[C@H]21", "censor-symbol": "=", "K0.5 / nM": 25.7}
{"compound-structure-string": "Cc1cccc2c1CN[C@@H]1CCc3cc(O)c(O)cc3[C@@H]21", "censor-symbol": "=", "K0.5 / nM": 18}
{"compound-structure-string": "CN1CCc2cc(Cl)c(O)cc2[C@@H](c2ccccc2)C1", "censor-symbol": ">", "K0.5 / nM": 500}

----------
Let's look at some compounds and their measured log10 K0.5.
Biological target: D(2) dopamine receptor (Rattus norvegicus) (UniProt P61169)
Sequence (P61169 whole entry): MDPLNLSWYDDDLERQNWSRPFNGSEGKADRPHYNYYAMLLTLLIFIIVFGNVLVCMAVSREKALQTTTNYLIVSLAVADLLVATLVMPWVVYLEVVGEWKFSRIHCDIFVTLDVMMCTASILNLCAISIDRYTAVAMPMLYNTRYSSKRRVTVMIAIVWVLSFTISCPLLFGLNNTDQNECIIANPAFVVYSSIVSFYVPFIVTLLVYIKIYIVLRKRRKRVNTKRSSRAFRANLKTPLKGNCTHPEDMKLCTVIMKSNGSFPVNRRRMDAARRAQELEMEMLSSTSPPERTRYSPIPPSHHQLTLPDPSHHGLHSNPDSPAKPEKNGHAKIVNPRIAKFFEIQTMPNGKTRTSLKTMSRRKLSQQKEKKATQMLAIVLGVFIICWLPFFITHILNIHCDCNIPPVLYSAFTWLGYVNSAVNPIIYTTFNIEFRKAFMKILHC
Test: Binding affinity for Dopamine receptor D2 of rat striatal homogenate
parameter: log10 K0.5 (log10 of the value in nM)

{"compound-structure-string": "CCc1ccc2c(c1)[C@@H]1c3cc(O)c(O)cc3CC[C@H]1NC2", "log10 K0.5": 2.63}
{"compound-structure-string": "O=c1[nH]c2ccccc2n1CCCN1CCC(n2c(=O)[nH]c3cc(Cl)ccc32)CC1", "log10 K0.5": 0.00}
{"compound-structure-string": "Oc1ccc2c(c1)[C@@H]1c3cc(O)c(O)cc3CC[C@H]1NC2", "log10 K0.5": 2.29}
{"compound-structure-string": "CCCN1Cc2c(C)cccc2[C@@H]2c3cc(O)c(O)cc3CC[C@H]21", "log10 K0.5": 0.95}
{"compound-structure-string": "Oc1cc2c(cc1O)[C@H]1c3cc(-c4ccccc4)ccc3CN[C@@H]1CC2", "log10 K0.5": 1.96}
